- Tgt: human glucagon receptor (human, UniProt P47871 26-477)
- Sequence (P47871 26-477): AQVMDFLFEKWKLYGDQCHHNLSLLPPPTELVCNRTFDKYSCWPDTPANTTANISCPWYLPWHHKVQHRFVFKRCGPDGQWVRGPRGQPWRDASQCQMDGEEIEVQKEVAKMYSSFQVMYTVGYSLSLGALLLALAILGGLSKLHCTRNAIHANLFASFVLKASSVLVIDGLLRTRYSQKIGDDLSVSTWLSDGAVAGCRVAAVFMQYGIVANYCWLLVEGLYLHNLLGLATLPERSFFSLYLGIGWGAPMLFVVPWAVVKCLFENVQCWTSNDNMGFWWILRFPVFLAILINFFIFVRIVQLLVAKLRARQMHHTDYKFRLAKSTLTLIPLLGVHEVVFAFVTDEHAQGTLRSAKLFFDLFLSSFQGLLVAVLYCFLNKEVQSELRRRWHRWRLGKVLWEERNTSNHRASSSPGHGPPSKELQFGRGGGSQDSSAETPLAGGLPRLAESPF
- Method Notes: cell-based or functional assay
Square brackets hold non-standard residues; d marks the D form. Ends that are not written are not given here. Abu(4-SO3H) = N[C@@H](CCS(=O)(=O)O)C(=O)O
Could you please report measured cAMP pA2 for the items listed next?
One number for each entry.

These recorded examples may help you get a feel for the data.
• FTS[Abu(4-SO3H)]YSKYLDSRRAQDFVQWLMNT-NH2 (also called [hCys(SO3)9]Glucagon(aa6-29)-NH2) [[hCys^9(SO3H)]Glucagon(aa6-29)-NH2] = 7.16
• FTSDYSKYLDSRRAQDFVQWLMNT-NH2 (also called peptide no; 15) [Glucagon(aa6-29)-NH2] = 6.94
• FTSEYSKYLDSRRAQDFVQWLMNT-NH2 (also called [E^9]Glucagon(aa6-29)-NH2; peptide no; 11) [[Glu^9]Glucagon(aa6-29)-NH2] = 7.16

get_value(item= FTSKYSKYLDSRRAQDFVQWLMNT-NH2 (also called [K^9]Glucagon(aa6-29)-NH2; peptide no; 16) [[Lys^9]Glucagon(aa6-29)-NH2] , readout=cAMP pA2) returns 6.58

Measured values drawn from patent US20110098217A1 for this set.
